# Experimental System: TNIK (Homo sapiens, UniProt Q9UKE5)
# Construct: purchased Promega V4158
# Sequence (Q9UKE5 1-367 limits assumed): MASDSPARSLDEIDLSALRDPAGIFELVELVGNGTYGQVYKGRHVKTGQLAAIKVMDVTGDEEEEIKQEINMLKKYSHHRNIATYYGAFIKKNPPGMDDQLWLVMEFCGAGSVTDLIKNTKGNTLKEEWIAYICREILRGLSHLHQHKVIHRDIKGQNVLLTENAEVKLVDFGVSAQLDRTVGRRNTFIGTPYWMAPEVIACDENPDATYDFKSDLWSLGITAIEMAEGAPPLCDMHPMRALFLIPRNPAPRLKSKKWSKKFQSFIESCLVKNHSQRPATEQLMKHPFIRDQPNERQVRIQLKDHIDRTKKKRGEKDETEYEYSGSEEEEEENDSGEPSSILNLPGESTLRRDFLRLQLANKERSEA
# Assay Method Text: ADP-Glo Kinase Assay, inhibition activity on TNIK
# Type: biochemical
# Cond: read-out: TNIK
Metric: pIC50
One number for each entry, as −log10 of the molar value.

COc1ccccc1-c1ccc(NC(=O)c2ccc(NCCN3CCCCCC3)cc2)c2c1CNC2=O = 6.62
Cc1ccc(C(=O)Nc2ccc(-c3ccccc3)c3c2C(=O)NC3)s1 = 6.27

Shifting focus to the compound that follows.
pIC50 reported for this compound Cn1cc(Nc2ccc(NC(=O)c3ccc(F)cc3)c3c2CNC3=O)cn1 : 5.19

---

# Experimental System: TNIK (Homo sapiens, UniProt Q9UKE5)
# Construct: purchased Promega V4158
# Assay Method Text: ADP-Glo Kinase Assay, inhibition activity on TNIK
# Assay type: biochemical
# Cond: read-out: TNIK
Metric: IC50

Look over these answered cases.
CC(C)(C)OC(=O)N1CCN(Cc2ccc(-c3ccc(NC(=O)c4ccccc4)c4c3CNC4=O)s2)CC1 [Example 198] = > 20 µM
COc1cccc(-c2ccc(NC(=O)c3cccs3)c3c2CN(C(=O)c2cccs2)C3=O)c1OC [Example 225] = > 20 µM

Given the molecule CS(=O)(=O)c1ccccc1-c1ccc(NC(=O)c2ccccc2)c2c1CNC2=O [Example 47] and test system TNIK (Homo sapiens, UniProt Q9UKE5), the measured IC50 is > 20 µM
